Cited source for all entries: patent US20200239888

- assayed.target: HA-NES-β23-NLUC-FUS(375-526)[P525L][R/S in 375-422 and 454-526] P525L; all Arg to Ser in 375-422 and 454-526 (UniProt P35637)
- stated.conditions: 2'-MOE at 1-5 and 16-20, DNA at 6-15; full PS; all C 5mC; nanoBRET
pKd: −log10 of the molar value.
property.measured: pKd

Recorded pKd of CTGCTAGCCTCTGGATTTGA [766633 (2'-MOE 5-10-5 gapmer)] , please. < 6.00

###

- assayed.target: FUS(1-526)[P525L][R/S in 375-422 and 454-526]-NLUC-FLAG P525L; all Arg to Ser in 375-422 and 454-526 (UniProt P35637)
- stated.conditions: cEt at 1-5 and 16-20, DNA at 6-15; full PS; all C 5mC; nanoBRET
property.measured: Kd (nM)
Number only, in nM; omit the unit.

Reported Kd for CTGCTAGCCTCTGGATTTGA [766635 (cEt 5-10-5 gapmer)] : what is it? 3.7
